Could you please report measured cAMP Rel EC50, nM (1% HSA) for the items listed next?
molecular target: hGLP-1R (Homo sapiens, UniProt P43220); test: cell-based or functional assay
Sequence (P43220 24-463): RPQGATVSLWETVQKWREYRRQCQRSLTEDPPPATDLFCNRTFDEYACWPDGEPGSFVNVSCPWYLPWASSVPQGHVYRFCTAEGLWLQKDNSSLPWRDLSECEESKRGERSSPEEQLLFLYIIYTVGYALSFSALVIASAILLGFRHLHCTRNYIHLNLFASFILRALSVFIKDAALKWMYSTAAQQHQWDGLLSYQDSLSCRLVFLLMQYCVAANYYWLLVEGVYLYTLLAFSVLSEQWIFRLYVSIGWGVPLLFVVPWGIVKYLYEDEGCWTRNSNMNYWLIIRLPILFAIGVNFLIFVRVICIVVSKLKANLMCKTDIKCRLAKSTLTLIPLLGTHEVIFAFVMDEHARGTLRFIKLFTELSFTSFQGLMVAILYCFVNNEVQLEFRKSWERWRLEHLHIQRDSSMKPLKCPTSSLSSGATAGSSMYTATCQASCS
Starred links: 1 amine or outer side, 2 acyl side, 3 side chain; linkers in the order of their positions; H or OH if unused. Non-standard residues stand in square brackets, D forms with d. Groups on a side chain read outwards from the residue. No end group written: not given here. *: point of attachment. C18 diacid = O=C(O)CCCCCCCCCCCCCCCCC(=O)*; γGlu = O=C(O)[C@H](CCC(=O)[*:2])N[*:1]; αMeL = CC(C)C[C@](C)(N)C(=O)O; Dap = NC[C@H](N)C(=O)O; Aib = CC(C)(N)C(=O)O
Give bare numbers, in nM.

Solved entries:
- BINDER: "Y[Aib]QGTFTSDFS[Dap][αMeL]LDKK([γGlu-γGlu-C18 diacid])AQ[Aib]AFIEYLLE[Aib]GPSSGAPPPSGS-NH2 [Example 203]"
  UNIT DESCRIPTOR: "nM"
  cAMP Rel EC50, nM (1% HSA): 532
- BINDER: "YXQGTXTSDYXIXLDXKAQXXFIEYLLEGGPSSGEPPPE (synthetic construct; SITE 2: note = 2-Aminoisobutyric Acid; SITE 6: note = alpha-methyl-L-phenylalanine; SITE 11: note = alpha-methyl-L-serine; SITE 13: note = alpha-methyl-leucine; SITE 16: note = L-ornithine; SITE 17: note = Lysine is chemically modified through conjugation of the epsilon-amino gr) [Example 391]"
  UNIT DESCRIPTOR: "nM"
  cAMP Rel EC50, nM (1% HSA): 34.4
- BINDER: "YXQGTXTSDXXIXLDXKAQXEFIEXLIEGGPSSGEPPPEGTGE (synthetic construct; SITE 2: note = 2-Aminoisobutyric Acid; SITE 6: note = alpha-methyl-2-fluoro-L-phenylalanine; SITE 10: note = 3-(4-Pyridyl)-L-alanine; SITE 11: note = alpha-methyl-L-serine; SITE 13: note = alpha-methyl-leucine; SITE 16: note = L-ornithine; SITE 17: note = Lysine is chemically mo) [Example 763]"
  UNIT DESCRIPTOR: "nM"
  cAMP Rel EC50, nM (1% HSA): 42.5
- BINDER: "YXQGTFTSDXSXXLDKKAQXAFIEXLIEGGPSSGAPPPSGSEE (Aib, 4Pal, Orn, αMeL, Me4Pal, acylated K, C-terminal amide; synthetic construct; SITE 2: note = 2-Aminoisobutyric Acid; SITE 10: note = 3-(4-Pyridyl)-L-alanine; SITE 12: note = L-ornithine; SITE 13: note = alpha-methyl-leucine; SITE 17: note = Lysine is chemically modified through conjugation of the epsilon-amino group of the Lysine side chain with (gamma-Gl)) [Example 958]"
  UNIT DESCRIPTOR: "nM"
  cAMP Rel EC50, nM (1% HSA): 850
- BINDER: "YXQGTXTSDXSILLDKKAQXAFIEYLEEGGPSSGAPPPS (not fully specified; synthetic construct; SITE 2: note = 2-Aminoisobutyric Acid; SITE 6: note = alpha-methyl-2-fluoro-L-phenylalanine; SITE 10: note = 3-(4-Pyridyl)-L-alanine; SITE 17: note = Lysine is chemically modified through conjugation of the epsilon-amino group of the Lysine side chain with (gamma-Glu)2-CO-(CH2)1) [Example 413]"
  UNIT DESCRIPTOR: "nM"
  cAMP Rel EC50, nM (1% HSA): 41.4

Now turn to the next binder.
**Q:** Item YXQGTFTSDFSXXLDXKAQXAFIEYLLEGGPSSGAPPPGGSEE (Aib, Orn, alpha-methyl-Leu, lipidated Lys, C-terminal amide; synthetic construct; SITE 2: note = 2-Aminoisobutyric Acid; SITE 12: note = L-ornithine; SITE 13: note = alpha-methyl-leucine; SITE 16: note = L-ornithine; SITE 17: note = Lysine is chemically modified through conjugation of the epsilon-amino group of the Lysine side chain with (gamma-Glu)2-CO-(CH2)) [Example 1048] has what recorded cAMP Rel EC50, nM (1% HSA)?
**A:** 1900

These measurements were taken from patent US20240270821A1.
